tested on: Escherichia coli; test: in vitro antibacterial (ABMF) microdilution susceptibility test; assay type: cell-based; details: Mueller-Hinton broth, 37° C., 16-24 hours, read-out: ABMF Test M.I.C. E. coli
Please note: MIC exactly at 4 µg/mL is f. Only values below 4 µg/mL get t.

Use the examples below as a reference point.
COMPOUND | LABEL_VALUE
CCOc1ccc2c(c1)-c1nn(CCN(C)C)c3ccc([N+](=O)[O-])c(c13)N2 | t
CCN(CC)CCn1nc2c3c(c([N+](=O)[O-])ccc31)Nc1c(OC)cc(OC)cc1-2 | f
CCCC(=O)Oc1ccc2c(c1)-c1nn(CCN(CC)CC)c3ccc([N+](=O)[O-])c(c13)N2 | f
CCOc1ccc2c(c1)-c1nn(CCN(CC)CC)c3ccc([N+](=O)[O-])c(c13)N2.CS(=O)(=O)O | f
CN(C)CCn1nc2c3c(c([N+](=O)[O-])ccc31)Nc1ccc(N(C)C)cc1-2 [Example 39, dihydrate] | f

Ask: Quick check: does CCCCOc1ccc2c(c1)-c1nn(CCNCCO)c3ccc([N+](=O)[O-])c(c13)N2 [Example 41, methanesulfonate, hemihydrate] have MIC under 4 µg/mL?
Reply: t

Ask: Say whether its MIC is strictly beneath 4 µg/mL. Entry: CCOc1ccc2c(c1)-c1nn(CCCN(C)C)c3ccc([N+](=O)[O-])c(c13)N2.CS(=O)(=O)O
Reply: f

Ask: Below 4 µg/mL on MIC? Entry CN(C)CCCn1nc2c3c(c([N+](=O)[O-])ccc31)Nc1ccc(OC(=O)C(C)(C)C)cc1-2
Reply: t

Ask: Determine if CC[N+]([O-])(CC)CCn1nc2c3c(c([N+](=O)[O-])ccc31)Nc1ccccc1-2 shows MIC strictly lower than 4 µg/mL.
Reply: f

Ask: Answer whether the compound CN(C)CCCn1nc2c3c(c([N+](=O)[O-])ccc31)Nc1ccc(O)cc1-2 has MIC strictly less than 4 µg/mL
Reply: t

Ask: State whether 4 µg/mL exceeds MIC recorded for CCN(CC)CCCn1nc2c3c(c([N+](=O)[O-])ccc31)Nc1ccc(OC)cc1-2 .
Reply: t

Ask: Just wondering, is MIC of CCN(CC)CCn1nc2c3c(c([N+](=O)[O-])ccc31)Nc1ccc(OC)c(Cl)c1-2 [Example 25, methanesulfonate, hydrate] below 4 µg/mL?
Reply: t

Ask: hey, is MIC for CCNCCn1nc2c3c(c([N+](=O)[O-])ccc31)Nc1ccc(OC)cc1-2 [Example 36, hemihydrate] lower than 4 µg/mL or not?
Reply: t

====

tested on: Bacillus cereus; assay: in vitro antibacterial (ABMF) microdilution susceptibility test; format: cell-based; conditions: Mueller-Hinton broth, 37° C., 16-24 hours, read-out: ABMF Test M.I.C. B. cere.
MIC by entry:

Check out these entries, answers already filled in.
COMPOUND | MIC
CCOc1ccc2c(c1)-c1nn(CCN(CC)CC)c3ccc([N+](=O)[O-])c(c13)N2.CS(=O)(=O)O | 12.3 µg/mL
CCCCOc1ccc2c(c1)-c1nn(CCNCCO)c3ccc([N+](=O)[O-])c(c13)N2 [Example 41, methanesulfonate, hemihydrate] | 12.3 µg/mL
CCN(CC)CCOc1ccc2c(c1)-c1nn(CCN(CC)CC)c3ccc([N+](=O)[O-])c(c13)N2 | 37 µg/mL
CCOc1ccc2c(c1)-c1nn(CCN(C)C)c3ccc([N+](=O)[O-])c(c13)N2 | 4.1 µg/mL
COc1cc(OC)c2c(c1)-c1nn(CCN(C)C)c3ccc([N+](=O)[O-])c(c13)N2.CS(=O)(=O)O | < 0.46 µg/mL

Ask: # get_value(readout= MIC, system= Bacillus cereus) for CCCC(=O)Oc1ccc2c(c1)-c1nn(CCN(CC)CC)c3ccc([N+](=O)[O-])c(c13)N2
Reply: 4.1 µg/mL

Ask: Under Bacillus cereus: MIC value of CCOC(=O)Oc1ccc2c(c1)-c1nn(CCN(CC)CC)c3ccc([N+](=O)[O-])c(c13)N2 ?
Reply: < 0.46 µg/mL

====

Entries and their zone of inhibition at 100 µg/mL
system: Alcaligenes viscolactis; experiment: in vitro antibacterial/antifungal (ABF) agar-disk diffusion assay; type: cell-based; settings: dose .1 mg/ml, read-out: ABF zone diameter A. viscol.
Where a name gives a salt, the structure may show the parent alone.
# number then unit; no other words

Some entries whose results are on file:
MOLECULE | TGT | RESULT
COc1ccc2c(c1)-c1nn(CCN(C)C)c3ccc([N+](=O)[O-])c(c13)N2 | Alcaligenes viscolactis | 19 mm
O=[N+]([O-])c1ccc2c3c(nn2CCNCCO)-c2ccccc2Nc13 [Example 3, monohydrochloride] | Alcaligenes viscolactis | 21 mm
CCN(CC)CCn1nc2c3c(c([N+](=O)[O-])ccc31)Nc1ccccc1-2 | Alcaligenes viscolactis | 22 mm

Ask: Which zone of inhibition at 100 µg/mL is reported for this molecule? CCN(CC)CCn1nc2c3c(c([N+](=O)[O-])ccc31)N(C)c1ccccc1-2 [Example 2, methanesulfonate]
Reply: 20 mm

Ask: Param item = CCN(CC)CCn1nc2c3c(c([N+](=O)[O-])ccc31)N(C)c1ccc(OC)cc1-2 [Example 6, monomethanesulfonate] ; retrieve measured zone of inhibition at 100 µg/mL.
Reply: 15 mm

Ask: Reported zone of inhibition at 100 µg/mL, molecule CN1c2ccccc2-c2nn(CCNCCO)c3ccc([N+](=O)[O-])c1c23 : ____
Reply: 19 mm

Ask: Please look up its zone of inhibition at 100 µg/mL: CCN(CC)CCn1nc2c3c(c([N+](=O)[O-])ccc31)Nc1ccc(OC)cc1-2
Reply: 18 mm

Ask: Can you share its zone of inhibition at 100 µg/mL? I mean this molecule: CCN(CC)CCn1nc2ccc([N+](=O)[O-])c3c2c1-c1ccccc1N3
Reply: 23 mm

====

Test system: HCT-8 cells
Experiment: in vitro proliferating human colon adenocarcinoma (HCA) cell screen, HCT-8
Assay type: cell-based
Conditions: HCT-8 cells, 60 to 65 hours, molar concentration for 50% inhibition of growth, read-out: HCA in vitro ID50 avg.
Procedure: (a) One test protocol is the in vitro proliferating human colon adenocarcinoma (HCA) cell screen. In this test, HCT-8 cells (HCA cell line received from Yale University) are trypsinized using trypsin-EDTA. A single cell suspension is achieved by passing the cells through a 26 gauge needle with a 20-cc syringe. […] The number of nuclei is determined using a Coulter counter (ZBI model), and a percent growth for each drug concentration is calculated. […]
REPORTED_ENDPOINT: IC50 (nM)
Give a bare numeral; the unit nM is implied.

COMPOUND | TGT | ENDPOINT_UNIT | RECORDED_NUMBER
CCN(CC)CCn1nc2c3c(c([N+](=O)[O-])ccc31)Nc1ccc(OC)cc1-2 | HCT-8 cells | nM | 120
CCN(CC)CCn1nc2c3c(c([N+](=O)[O-])ccc31)Nc1ccccc1-2 | HCT-8 cells | nM | 300
CCN(CC)CCn1nc2c3c(c([N+](=O)[O-])ccc31)N(C)c1ccccc1-2 [Example 2, methanesulfonate] | HCT-8 cells | nM | 1000
COc1ccc2c(c1)-c1nn(CCN(C)C)c3ccc([N+](=O)[O-])c(c13)N2 | HCT-8 cells | nM | 100
CCN(CC)CCn1nc2c3c(c([N+](=O)[O-])ccc31)Nc1ccc(OCc3ccccc3)cc1-2 [Example 11, monomethanesulfonate] | HCT-8 cells | nM | 2300
CCN(CC)CCn1nc2c3c(c([N+](=O)[O-])ccc31)Nc1ccc(O)cc1-2 | HCT-8 cells | nM | 13

Now look at this entry.
Ask: Give the measured IC50 of CCN(CC)CCn1nc2c3c(c([N+](=O)[O-])ccc31)N(C)c1ccc(OC)cc1-2 [Example 6, monomethanesulfonate] .
Reply: 310

====

Known MIC of a selection of compounds
system: Alcaligenes viscolactis; test: in vitro antibacterial (ABMF) microdilution susceptibility test; assay type: cell-based; conditions: read-out: ABMF Test M.I.C. A. visc.

COMPOUND | REPORTED_ENDPOINT | RESULT
CCN(CC)CCn1nc2c3c(c([N+](=O)[O-])cc([N+](=O)[O-])c31)Nc1ccc(O)cc1-2 [Example 49, methanesulfonate, hemihydrate] | MIC | < 0.46 µg/mL

Ask: Consider the compound shown here: COc1ccc2c(c1)-c1nn(CCN(C)C)c3c([N+](=O)[O-])cc([N+](=O)[O-])c(c13)N2 [Example 54, hydrate] What is its recorded MIC?
Reply: 0.46 µg/mL

Ask: Which MIC value belongs to CCN(CC)CCn1nc2c3c(c([N+](=O)[O-])ccc31)Nc1ccc(O[Si](C)(C)C(C)(C)C)cc1-2 ?
Reply: 37 µg/mL

Ask: Any idea what its MIC is? The compound is CCN(CC)CCn1nc2c3c(c([N+](=O)[O-])cc([N+](=O)[O-])c31)Nc1ccc(OC)cc1-2 [Example 50, hydrate]
Reply: < 0.46 µg/mL

Data origin: patent US4555572A
